solubility kinetic at 24 h values by entry
Assay: Kinetic solubility of compound in pH7.4 DMSO/phosphate buffered saline after 24 hrs by chemiluminescent nitrogen detection method
Format: physicochemical
Conditions: pH 7.4, read-out: Kinetic_solubility
The reply should be a number in µM, with the unit left off.

COc1ccccc1Nc1cc[nH]c(=O)c1C(=O)Nc1ccc(C2CCN(C)CC2)cc1 ... 61

solubility kinetic at 24 h reported for this compound `COc1ccccc1Nc1cc[nH]c(=O)c1C(=O)Nc1ccc(N2CCN(C)CC2)cc1` : 4

solubility kinetic at 24 h reported for this compound `COc1ccccc1Nc1cc[nH]c(=O)c1C(=O)Nc1ccc(N2CCN(C)CC2)nc1` : 65

solubility kinetic at 24 h reported for this compound `CN1CCN(c2ccc(NC(=O)c3c(NC[C@@H](O)c4cccc(Cl)c4)cc[nH]c3=O)cc2)CC1` : 11
